Listed below: screen value values for each entry.
B1: NCOA2 peptide 1073-1088 (Nuclear receptor coactivator 2), 16-mer library wild type / NSP3 UBl1 (ORF1ab Nsp3a Ub1, residues 819-925) (parent)
chain 1: PSDEGALLDQLYLALR
chain 2: APTKVTFGDDTVIEVQGYKSVNITFELDERIDKVLNEKCSAYTVELGTEVNEFACVVADAVIKTLQPVSELLTPLGIDLDEWSMATYYLFDESGEFKLASHMYCSFY

Variants of: B1
Conditions: with NSP3 UBl1 (ORF1ab Nsp3a Ub1, residues 819-925); bait immobilised on MaxiSorp plates (10 µg), library pre-cleared on GST, 2 h binding at 4 °C, five washes; one round per day, days 1-4; value from days 2 and 3; keep out of graded; scale: average fractional NGS count over selection days 2 and 3
property: screen value

>>> df
    mutation_label    result
 0     chain 1 S2F  4.76e-06
 1     chain 1 G5I  4.53e-05
 2     chain 1 L8H         0
 3    chain 1 L13S         0
 4     chain 1 D3N  1.14e-05
 5    chain 1 L11I  0.000119
 6    chain 1 L11A         0
 7    chain 1 Y12F  0.000754
 8    chain 1 Q10A         0
 9     chain 1 D9S  1.09e-05
10     chain 1 S2L  1.56e-05
11    chain 1 A14Y         0
12    chain 1 Q10M  3.19e-06
13    chain 1 R16H  0.000164
14     chain 1 L8K         0
15     chain 1 E4P         0
16     chain 1 S2E         0
17     chain 1 L7Q         0
18    chain 1 R16I  1.03e-05
19     chain 1 A6K         0
20     chain 1 L7T         0
21     chain 1 L8A         0
